- Test system: H460 (lung)
- methodSummary: Anti-cell proliferation in tumor cells (14C-thymidine incorporation), H460
- Type: cell-based
- conditionInfo: Homo sapiens, NCI-H460, read-out: IC50 on cell proliferation, H460
quantityName: pIC50
To interpret pIC50, take it as minus log10 of a concentration measured in moles per litre.

## Input Quote H460 (lung) pIC50 for entry COc1cc2c(cc1OC)-c1n[nH]c(Nc3cccc(F)c3)c1C2 [Compound 14] .
## Output 8.00

----------
- targetOfAssay: PDGF-receptor beta enzyme comprising the tyrosine kinase domain (Homo sapiens)
- Construct: from amino acid 545 to 1106 of GenBank Access NO: AAA36427
- Sequence (P09619 545-1106): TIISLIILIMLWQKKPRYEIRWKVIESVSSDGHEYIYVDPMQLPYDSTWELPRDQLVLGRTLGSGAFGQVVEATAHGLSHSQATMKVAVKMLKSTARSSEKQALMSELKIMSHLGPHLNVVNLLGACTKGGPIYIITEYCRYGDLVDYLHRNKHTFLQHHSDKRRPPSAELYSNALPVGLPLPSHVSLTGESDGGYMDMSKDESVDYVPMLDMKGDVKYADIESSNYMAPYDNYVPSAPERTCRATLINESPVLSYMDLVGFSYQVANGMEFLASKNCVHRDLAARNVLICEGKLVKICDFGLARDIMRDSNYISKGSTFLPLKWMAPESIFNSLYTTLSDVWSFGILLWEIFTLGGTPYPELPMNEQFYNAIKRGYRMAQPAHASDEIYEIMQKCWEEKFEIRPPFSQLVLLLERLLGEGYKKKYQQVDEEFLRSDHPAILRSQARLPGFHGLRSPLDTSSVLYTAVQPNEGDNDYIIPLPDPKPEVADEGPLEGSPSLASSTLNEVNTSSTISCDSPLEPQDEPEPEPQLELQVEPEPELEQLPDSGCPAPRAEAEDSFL
- methodSummary: Inhibition of PDGF-receptor kinase activity (cell-free, PLC1 peptide, 33P Flashplate)
- Format: biochemical
- conditionInfo: PDGF-R kinase activity; read-out: IC50
Each record is given Condition met if its reported IC50 is strictly below 600 nM. Records at or above 600 nM are given Condition not met.

## Input State whether 600 nM exceeds IC50 recorded for COc1cc2c(cc1OC)-c1n[nH]c(Nc3ccc(S(=O)(=O)C4CCNCC4)cc3)c1C2 .
## Output Condition not met

## Input Field: below-cutoff. Rule: recorded IC50 strictly less than 600 nM. Subject: COc1cccc2c1Cc1c-2n[nH]c1Nc1ccccc1
## Output Condition met

## Input Please indicate whether the reported IC50 of CCOC(=O)CCC(=O)n1nc(Nc2cccc(F)c2)c2c1-c1cc(OC)c(OC)cc1C2 is strictly below 600 nM.
## Output Condition not met

## Input I'd appreciate it if you could check whether CCC1c2cc(OC)c(OC)cc2-c2c1c(Nc1cccc(Br)c1)nn2C(=O)COC (centres unmarked) has IC50 smaller than 600 nM.
## Output Condition met

----------
- targetOfAssay: PDGF-receptor beta enzyme comprising the tyrosine kinase domain (Homo sapiens)
- Construct: from amino acid 545 to 1106 of GenBank Access NO: AAA36427
- methodSummary: Inhibition of PDGF-receptor kinase activity (cell-free, PLC1 peptide, 33P Flashplate)
- Format: biochemical
- conditionInfo: PDGF-R kinase activity; read-out: IC50
Please respond with Criterion met when measured IC50 is strictly beneath 0.4 µM, and with Criterion not met in all other cases.

## Input Input Clc1cccc(Nc2[nH]nc3c2Cc2c(OCCCN4CCOCC4)cccc2-3)c1 ; condition: IC50 strictly below 0.4 µM. Does it hold?
## Output Criterion met

## Input Report whether reported IC50 is lower than 0.4 µM (strictly) for Cc1cccc2c1Cc1c-2n[nH]c1Nc1ccccc1
## Output Criterion not met

## Input Please determine if CN(C)CCCOc1ccc2c(c1)Cc1c-2n[nH]c1Nc1cccnc1 is below 0.4 µM in terms of IC50.
## Output Criterion met

## Input Record COc1cc2c(cc1OCC(O)CN1CCCC1)Cc1c-2n[nH]c1NCc1ccccc1F (stereo not drawn) : is its IC50 strictly below 0.4 µM?
## Output Criterion met

## Input Hi there! Is IC50 for COc1cc2c(cc1OC)-c1n[nH]c(Nc3cccc(Cl)c3Cl)c1C2 below 0.4 µM, do you know?
## Output Criterion not met

## Input Is the reported IC50 for Cc1ccccc1CNc1[nH]nc2c1Cc1c(OCCCO)cccc1-2 strictly below 0.4 µM?
## Output Criterion met

## Input Please indicate whether the reported IC50 of COC(=O)c1cccc(Nc2[nH]nc3c2Cc2c(OCCCN(C)C)cccc2-3)c1 is strictly below 0.4 µM.
## Output Criterion met

## Input Strictly below 0.4 µM: is that where IC50 of COc1cc(Nc2[nH]nc3c2Cc2c(OC)cccc2-3)cc(C(F)(F)F)c1 sits?
## Output Criterion not met

## Input Quick check: IC50 of COc1cc2c(cc1OCCCN1CCOCC1)Cc1c-2n[nH]c1Nc1cccc(Cl)c1 under 0.4 µM?
## Output Criterion met
